Source of measurements: ChEMBL document CHEMBL4393685

test: Stimulation of ex vivo expansion of human CD34+ cells assessed as CD34+CD38- level at 0.01 to 1 uM incubated for 7 days supplemented with 50% fresh medium containing cytokines every other day by flow cytometry (reference value: 19.10 +/- 0.35%); type: functional
The label depends only on Activity: t if it is at least 20%, f if it is smaller.

molecule	class_name
Cc1cc(Cl)ccc1Nc1nc(Cc2ccccc2)nc2[nH]c3cc(-c4nnn(C)n4)ccc3c12	f
Cn1nnc(-c2ccc3[nH]c4nc(Cc5ccccc5)nc(NCCc5c[nH]c6ccccc56)c4c3c2)n1	t
Cn1nnc(-c2ccc3[nH]c4nc(Cc5ccccc5)nc(N[C@H]5CC[C@H](N)CC5)c4c3c2)n1	f
COc1ccc(Nc2nc(Cc3ccccc3)nc3[nH]c4ccc(-c5nnn(C)n5)cc4c23)cc1	f
COc1cc2c(cc1OC)CN(CCNc1nc(Cc3ccccc3)nc3[nH]c4cc(-c5nnn(C)n5)ccc4c13)CC2	t
Cc1cc(Cl)ccc1Nc1nc(Cc2ccccc2)nc2[nH]c3ccc(-c4nnn(C)n4)cc3c12	t
Cn1nnc(-c2ccc3[nH]c4nc(Cc5ccccc5)nc(N5CCCC(CO)C5)c4c3c2)n1 (configuration not stated)	t
CC(O)CNc1nc(Cc2ccccc2)nc2[nH]c3ccc(-c4nnn(C)n4)cc3c12 (configuration not stated)	t
Cn1nnc(-c2ccc3[nH]c4nc(Cc5ccccc5)nc(NCc5ccccc5)c4c3c2)n1	t
Cn1nnc(-c2ccc3c(c2)[nH]c2nc(Cc4ccccc4)nc(NC4CCOCC4)c23)n1	t
COc1cc2c(cc1OC)CN(CCNc1nc(Cc3ccccc3)nc3[nH]c4ccc(-c5nnn(C)n5)cc4c13)CC2	t
Cn1nnc(-c2ccc3[nH]c4nc(Cc5ccccc5)nc(NCCN(Cc5ccccn5)Cc5ccccn5)c4c3c2)n1	t
Cn1nnc(-c2ccc3[nH]c4nc(Cc5ccccc5)nc(Nc5ccc(N)cc5)c4c3c2)n1	t
Cn1nnc(-c2ccc3[nH]c4nc(Cc5ccccc5)nc(N5CCNCC5)c4c3c2)n1	t
C#Cc1cccc(Nc2nc(Cc3ccccc3)nc3[nH]c4cc(-c5nnn(C)n5)ccc4c23)c1	f
COc1ccc(CCNc2nc(Cc3ccccc3)nc3[nH]c4ccc(-c5nnn(C)n5)cc4c23)cc1OC	t
Cn1nnc(-c2ccc3[nH]c4nc(Cc5ccccc5)nc(NCCNC(=O)OC(C)(C)C)c4c3c2)n1	f
Cn1nnc(-c2ccc3[nH]c4nc(Cc5ccccc5)nc(N[C@H]5CC[C@H](O)CC5)c4c3c2)n1	f
COc1ccc(CCNc2nc(Cc3ccccc3)nc3[nH]c4cc(-c5nnn(C)n5)ccc4c23)cc1	f
Cn1nnc(-c2ccc3[nH]c4nc(Cc5ccccc5)nc(NCCc5ccc(O)cc5)c4c3c2)n1	t
Cc1ccc(Sc2nc(Cc3ccccc3)nc3[nH]c4ccc(-c5nnn(C)n5)cc4c23)cc1	t
Cn1nnc(-c2ccc3c(c2)[nH]c2nc(Cc4ccccc4)nc(NCCc4ccc(O)cc4)c23)n1	f
Cn1nnc(-c2ccc3[nH]c4nc(Cc5ccccc5)nc(N5CCOCC5)c4c3c2)n1	f
COc1ccc(CCNc2nc(Cc3ccccc3)nc3[nH]c4cc(-c5nnn(C)n5)ccc4c23)cc1OC	t
Cn1nnc(-c2ccc3[nH]c4nc(Cc5ccccc5)nc(Nc5ccccc5)c4c3c2)n1	f
CNC(=O)c1ccc(Nc2nc(Cc3ccccc3)nc3[nH]c4ccc(-c5nnn(C)n5)cc4c23)cc1	t
CN(C)c1nc(Cc2ccccc2)nc2[nH]c3cc(-c4nnn(C)n4)ccc3c12	f
Cn1nnc(-c2ccc3[nH]c4nc(Cc5ccccc5)nc(Nc5ccc(F)c(Cl)c5)c4c3c2)n1	t
Cn1nnc(-c2ccc3[nH]c4nc(Cc5ccccc5)nc(NCCNC(=O)c5ccc6ccccc6n5)c4c3c2)n1	t
C#Cc1cccc(Nc2nc(Cc3ccccc3)nc3[nH]c4ccc(-c5nnn(C)n5)cc4c23)c1	t
Cn1nnc(-c2ccc3[nH]c4nc(Cc5ccccc5)nc(Nc5cccc(Br)c5)c4c3c2)n1	t
Cn1nnc(-c2ccc3c(c2)[nH]c2nc(Cc4ccccc4)nc(N[C@H]4CC[C@H](O)CC4)c23)n1	t
Cn1nnc(-c2ccc3[nH]c4nc(Cc5ccccc5)nc(NCCO)c4c3c2)n1	f
Cn1nnc(-c2ccc3c(c2)[nH]c2nc(Cc4ccccc4)nc(Nc4ccc(F)c(Cl)c4)c23)n1	f
COc1ccc(CCNc2nc(Cc3ccccc3)nc3[nH]c4ccc(-c5nnn(C)n5)cc4c23)cc1	t

----------
assay: Ex vivo expansion of human CD34+ cells assessed as increase in CD34+ cell level after 5 to 7 days by […]; assay type: functional
measure: EC50

given_smiles	assay_result
CC(C)n1cnc2c(NCCc3ccc(O)cc3)nc(-c3csc4ccccc34)nc21	120 nM

----------
// values below are reported fold change (FC)
assay: Stimulation of ex vivo expansion of human CD34+ cells assessed as CD34+/CD38- level at 0.01 to 1 uM incubated for 7 days supplemented with 50% fresh medium containing cytokines every other day by flow cytometry relative to control; type: functional

compound	fold change (FC)
Cn1nnc(-c2ccc3c(c2)[nH]c2nc(Cc4ccccc4)nc(N[C@H]4CC[C@H](O)CC4)c23)n1	2.63
CNC(=O)c1ccc(Nc2nc(Cc3ccccc3)nc3[nH]c4ccc(-c5nnn(C)n5)cc4c23)cc1	1.14
Cn1nnc(-c2ccc3c(c2)[nH]c2nc(Cc4ccccc4)nc(Nc4ccc(F)c(Cl)c4)c23)n1	0.83
Cc1ccc(Sc2nc(Cc3ccccc3)nc3[nH]c4ccc(-c5nnn(C)n5)cc4c23)cc1	1.34
Cc1cc(Cl)ccc1Nc1nc(Cc2ccccc2)nc2[nH]c3ccc(-c4nnn(C)n4)cc3c12	1.59
Cc1cc(Cl)ccc1Nc1nc(Cc2ccccc2)nc2[nH]c3cc(-c4nnn(C)n4)ccc3c12	0.8
Cn1nnc(-c2ccc3[nH]c4nc(Cc5ccccc5)nc(Nc5ccccc5)c4c3c2)n1	0.94
Cn1nnc(-c2ccc3[nH]c4nc(Cc5ccccc5)nc(Nc5cccc(Br)c5)c4c3c2)n1	1.19
Cn1nnc(-c2ccc3[nH]c4nc(Cc5ccccc5)nc(N5CCCC(CO)C5)c4c3c2)n1 (stereo not given)	1.16
Cn1nnc(-c2ccc3[nH]c4nc(Cc5ccccc5)nc(NCCNC(=O)c5ccc6ccccc6n5)c4c3c2)n1	1.09

----------
assay: Stimulation of ex vivo expansion of human CD34+ cells assessed as CD34+/CD38- level at 0.01 to 1 uM incubated for 7 days supplemented with 50% fresh medium containing cytokines every other day by flow cytometry relative to control; type: functional
// values below are reported fold change (FC)
measure: fold change (FC)

given_smiles	assay_result
Cn1nnc(-c2ccc3[nH]c4nc(Cc5ccccc5)nc(N5CCOCC5)c4c3c2)n1	0.91
Cn1nnc(-c2ccc3[nH]c4nc(Cc5ccccc5)nc(NCCc5c[nH]c6ccccc56)c4c3c2)n1	1.14
COc1ccc(CCNc2nc(Cc3ccccc3)nc3[nH]c4ccc(-c5nnn(C)n5)cc4c23)cc1OC	1.24
CN(C)c1nc(Cc2ccccc2)nc2[nH]c3cc(-c4nnn(C)n4)ccc3c12	0.83
COc1cc2c(cc1OC)CN(CCNc1nc(Cc3ccccc3)nc3[nH]c4ccc(-c5nnn(C)n5)cc4c13)CC2	1.27
Cn1nnc(-c2ccc3[nH]c4nc(Cc5ccccc5)nc(N5CCNCC5)c4c3c2)n1	1.29
COc1ccc(CCNc2nc(Cc3ccccc3)nc3[nH]c4ccc(-c5nnn(C)n5)cc4c23)cc1	1.15
COc1ccc(CCNc2nc(Cc3ccccc3)nc3[nH]c4cc(-c5nnn(C)n5)ccc4c23)cc1OC	1.94
Cn1nnc(-c2ccc3[nH]c4nc(Cc5ccccc5)nc(Nc5ccc(F)c(Cl)c5)c4c3c2)n1	1.08
COc1ccc(Nc2nc(Cc3ccccc3)nc3[nH]c4ccc(-c5nnn(C)n5)cc4c23)cc1	1.01
COc1ccc(CCNc2nc(Cc3ccccc3)nc3[nH]c4cc(-c5nnn(C)n5)ccc4c23)cc1	0.74
Cn1nnc(-c2ccc3c(c2)[nH]c2nc(Cc4ccccc4)nc(NCCc4ccc(O)cc4)c23)n1	0.95
Cn1nnc(-c2ccc3[nH]c4nc(Cc5ccccc5)nc(NCc5ccccc5)c4c3c2)n1	1.25
Cn1nnc(-c2ccc3[nH]c4nc(Cc5ccccc5)nc(N[C@H]5CC[C@H](O)CC5)c4c3c2)n1	0.94
Cn1nnc(-c2ccc3[nH]c4nc(Cc5ccccc5)nc(NCCN(Cc5ccccn5)Cc5ccccn5)c4c3c2)n1	1.27
Cn1nnc(-c2ccc3c(c2)[nH]c2nc(Cc4ccccc4)nc(NCCc4c[nH]c5ccccc45)c23)n1	1.03
C#Cc1cccc(Nc2nc(Cc3ccccc3)nc3[nH]c4ccc(-c5nnn(C)n5)cc4c23)c1	1.36
Cn1nnc(-c2ccc3[nH]c4nc(Cc5ccccc5)nc(N5CCC(CO)CC5)c4c3c2)n1	1.06

----------
test: Stimulation of ex vivo expansion of human CD34+ cells assessed as CD34+/CD38- level at 0.01 to 1 uM incubated for 7 days supplemented with 50% fresh medium containing cytokines every other day by flow cytometry relative to control; format: functional
// values below are reported fold change (FC)
measure: fold change (FC)

molecule	assay_result
Cn1nnc(-c2ccc3c(c2)[nH]c2nc(Cc4ccccc4)nc(NC4CCOCC4)c23)n1	1.62
Cn1nnc(-c2ccc3[nH]c4nc(Cc5ccccc5)nc(N[C@H]5CC[C@H](N)CC5)c4c3c2)n1	0.98
CC(O)CNc1nc(Cc2ccccc2)nc2[nH]c3ccc(-c4nnn(C)n4)cc3c12 (centres undefined)	1.63
C#Cc1cccc(Nc2nc(Cc3ccccc3)nc3[nH]c4cc(-c5nnn(C)n5)ccc4c23)c1	0.89
Cn1nnc(-c2ccc3[nH]c4nc(Cc5ccccc5)nc(Nc5ccc(N)cc5)c4c3c2)n1	1.15
Cn1nnc(-c2ccc3[nH]c4nc(Cc5ccccc5)nc(NCCc5ccc(O)cc5)c4c3c2)n1	1.08
Cn1nnc(-c2ccc3[nH]c4nc(Cc5ccccc5)nc(NCCO)c4c3c2)n1	0.99
COc1cc2c(cc1OC)CN(CCNc1nc(Cc3ccccc3)nc3[nH]c4cc(-c5nnn(C)n5)ccc4c13)CC2	3.65
Cn1nnc(-c2ccc3[nH]c4nc(Cc5ccccc5)nc(NCCNC(=O)OC(C)(C)C)c4c3c2)n1	0.84
